- tested.system: UniProt:Q8ILY1
- assay.name: Fluorescence-based high-throughput DNA polymerase assay (molecular beacon), primary screen and dose-response
- Format: biochemical
- run.conditions: DRC-2, 90', concentration 80

compound	tested.system	% inhibition ApPOL 90' (%)
COc1ccc2c(c1)CCc1c-2nc2ccc(Br)cc2c1C(=O)O [KU0059417]	UniProt:Q8ILY1	69
Cc1nn(CC(=O)NCCSCc2ccco2)c(C)c1Br [KU0267182]	UniProt:Q8ILY1	63
O=C(Nc1ncc([N+](=O)[O-])s1)c1ccc2c(c1)C(=O)N(N1C(=O)c3ccccc3C1=O)C2=O [KU0026378]	UniProt:Q8ILY1	75
COc1cc(/C=C2\S/C(=N/C(C)=O)NC2=O)cc(Br)c1OCC(=O)O [KU0057841]	UniProt:Q8ILY1	60
O=[N+]([O-])c1cc2c(cc1CN1CCN(c3cccc(Cl)c3)CC1)OCO2 [KU0005610]	UniProt:Q8ILY1	61
O=C(O)CC1=NN(c2cccc([N+](=O)[O-])c2)C(=O)C1 [KU0100531]	UniProt:Q8ILY1	71
O=C(Nc1nnc(-c2ccno2)o1)c1ccc2c(c1)OCO2 [KU0171343]	UniProt:Q8ILY1	55
CCOc1ccccc1-c1nc(-c2ccc(=O)[nH]c2)no1 [Molecule 76, CCOc1ccccc1c1onc(n1)c1ccc(=O)[nH]c1]	UniProt:Q8ILY1	56
CC1=NNC(=O)C1Oc1ccc(Cl)cc1Cl (centres unmarked) [KU0265591]	UniProt:Q8ILY1	51
O=C(Nc1nnc(-c2ccno2)o1)c1ccc2ncsc2c1 [Molecule 62, O=C(c1ccc2c(c1)scn2)Nc1nnc(o1)c1ccno1]	UniProt:Q8ILY1	62
Cn1nc(C(=O)N2CCc3c(nc4cc(-c5ccccc5)[nH]n4c3=O)C2)c2ccccc21 [Molecule 18]	UniProt:Q8ILY1	48
O=C(c1c[nH]c2ncccc12)N1CCCCCC1 [Molecule 51, O=C(c1c[nH]c2c1cccn2)N1CCCCCC1]	UniProt:Q8ILY1	68
O=c1cc(-c2ccccc2)oc2c(O)c(O)ccc12 [Molecule 84, Oc1ccc2c(c1O)oc(cc2=O)c1ccccc1]	UniProt:Q8ILY1	32
O=C(Nc1nnc(-c2cccs2)o1)c1ccc([N+](=O)[O-])o1 [Molecule 74]	UniProt:Q8ILY1	79
CN(C)C=C1SCc2ccccc2C1=O [Molecule 77, CN(C=C1SCc2c(C1=O)cccc2)C]	UniProt:Q8ILY1	54
O=C(O)CC1SC(c2ccc3c(c2)OCO3)=NC1=O (centres unmarked) [Molecule 69, OC(=O)CC1SC(=NC1=O)c1ccc2c(c1)OCO2]	UniProt:Q8ILY1	50
O=C(O)C(=O)Nc1nc(-c2ccc3c(c2)OCCO3)cs1 [Molecule 82, OC(=O)C(=O)Nc1scc(n1)c1ccc2c(c1)OCCO2]	UniProt:Q8ILY1	43
CSCCC(C)(O)CNC(=O)C1CC1 (centres unmarked) [KU0200150]	UniProt:Q8ILY1	41
CCOC(=O)C(NCc1ccco1)(NC(=O)c1ccco1)C(F)(F)F (centres unmarked) [KU0276119]	UniProt:Q8ILY1	54
CN1CC(=Cc2ccco2)C(=O)C(=Cc2ccco2)C1 [Molecule 65, CN1CC(=Cc2ccco2)C(=O)C(=Cc2ccco2)C1]	UniProt:Q8ILY1	56
CN(C)C=CC(=O)c1ccccn1 [Molecule 64, CN(C=CC(=O)c1ccccn1)C]	UniProt:Q8ILY1	65
O=[N+]([O-])c1cc2c(cc1CN1CCCCCC1)OCO2 [KU0004987]	UniProt:Q8ILY1	45
CSC(C)C(=O)C=CN(C)C (centres unmarked) [Molecule 71, CSC(C(=O)C=CN(C)C)C]	UniProt:Q8ILY1	64
COc1ccccc1CCC(=O)N1CCc2c(nc3cc(-c4ccccc4)[nH]n3c2=O)C1 [Molecule 7]	UniProt:Q8ILY1	47
O=C(O)c1c(F)c(F)c(-c2c(F)c(F)c(C(=O)O)c(F)c2F)c(F)c1F [KU0008974]	UniProt:Q8ILY1	47
Cc1ncc(CSc2nc(C(C)(C)C)cs2)c(CO)c1O [KU0264007]	UniProt:Q8ILY1	62
CO/N=C(\C(=O)N[C@@H]1C(=O)N2C(C(=O)[O-])=C(CSc3nc(=O)c([O-])nn3C)CSC12)c1csc(N)n1.[Na+].[Na+] (some centres unmarked) [Molecule 83]	UniProt:Q8ILY1	56
O=C(NNC(=O)C(F)(F)Sc1ccccc1)c1ccsc1 [Molecule 68, O=C(C(Sc1ccccc1)(F)F)NNC(=O)c1cscc1]	UniProt:Q8ILY1	62
Oc1ccc(N=Nc2ccccc2)c(O)c1 [Molecule 80, Oc1ccc(c(c1)O)N=Nc1ccccc1]	UniProt:Q8ILY1	52
COc1ccc(C(=O)Nc2cccc(-c3nc4ncccc4o3)c2)cc1[N+](=O)[O-] [KU0063313]	UniProt:Q8ILY1	58
CCSc1nnc(NC(=O)Cc2csc(NC(=O)c3cnccn3)n2)s1 [Molecule 79]	UniProt:Q8ILY1	79
CS(=O)(=O)c1cccc(C(=O)Nc2nnc(-c3ccno3)o2)c1 [KU0171319]	UniProt:Q8ILY1	34

###

# % inhibition Apol 90' annotations
- tested.system: P. falciparum apicoplast DNA polymerase (Pf-apPOL) (Plasmodium falciparum, UniProt Q8ILY1)
- Sequence (Q8ILY1 entry or part of it): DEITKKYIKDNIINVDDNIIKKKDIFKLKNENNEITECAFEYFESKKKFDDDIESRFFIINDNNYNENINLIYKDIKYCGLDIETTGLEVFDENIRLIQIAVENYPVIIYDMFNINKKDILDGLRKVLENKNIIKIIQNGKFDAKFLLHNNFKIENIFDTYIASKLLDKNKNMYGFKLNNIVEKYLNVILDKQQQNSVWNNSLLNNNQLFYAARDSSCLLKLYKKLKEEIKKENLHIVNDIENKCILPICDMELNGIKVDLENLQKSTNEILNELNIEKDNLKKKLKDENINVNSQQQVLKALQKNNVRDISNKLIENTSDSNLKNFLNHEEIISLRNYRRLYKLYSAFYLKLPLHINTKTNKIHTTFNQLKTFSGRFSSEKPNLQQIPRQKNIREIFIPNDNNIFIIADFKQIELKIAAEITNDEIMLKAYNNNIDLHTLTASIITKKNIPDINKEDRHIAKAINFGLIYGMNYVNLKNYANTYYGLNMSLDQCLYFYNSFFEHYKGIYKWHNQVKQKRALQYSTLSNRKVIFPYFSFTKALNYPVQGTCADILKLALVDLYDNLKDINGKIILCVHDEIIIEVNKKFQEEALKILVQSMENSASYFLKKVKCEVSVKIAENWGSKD
- assay.name: Fluorescence-based high-throughput DNA polymerase assay (molecular beacon), primary screen and dose-response
- Format: biochemical
- run.conditions: DRC-1; 90'; concentration 2.5

molecule	% inhibition Apol 90' / %
CC(C)(C)OC(=O)COc1ccc2cc(-c3ccccc3)c(=O)oc2c1 [Molecule 81]	2.03
CCOC(=O)C1=C2c3cc(OC)c(OC)cc3CC(C)(C)N2C(=O)C1=O [KU0193659]	2.413
CCCCCCCCCCCCCCCCCC(=O)CCN(C)C [KU0271928]	3.047
Cc1ccc(CCNC(=O)c2cnn3c(O)c(Cc4ccccc4F)c(C)nc23)cc1 [KU0097142]	-9.394
O=C(Cc1cc(=O)[nH]c(SCc2ccccc2)n1)Nc1ccc2c(c1)OCO2 [Molecule 46]	-4.834
Cc1cc(C)cc(-n2nc3c(c2NC(=O)c2ccco2)CSC3)c1 [KU0055926]	-0.9298
Cc1ccc(C)n1-c1ccc(C(=O)NNC(=O)c2ccc3nccnc3c2)cc1 [Molecule 53]	-3.841
O=C(O)CC1=NN(c2cccc([N+](=O)[O-])c2)C(=O)C1 [KU0100531]	15.7319
O=C(c1c[nH]c2ncccc12)N1CCCC1 [Molecule 63, O=C(c1c[nH]c2c1cccn2)N1CCCC1]	5.771
COc1cc(/C=C2\S/C(=N/C(C)=O)NC2=O)cc(Br)c1OCC(=O)O [KU0057841]	3.601
O=C(Nc1nnc(-c2ccno2)o1)c1ccc2ncsc2c1 [Molecule 62, O=C(c1ccc2c(c1)scn2)Nc1nnc(o1)c1ccno1]	-2.7392
COc1ccc(C=C2Oc3c(ccc4c3CN(c3ccc5c(c3)OCO5)CO4)C2=O)cc1OC [KU0199426]	9.888
N#Cc1c(C2CCCCC2)nc(Sc2ccc(C(F)(F)F)cc2[N+](=O)[O-])[nH]c1=O [Molecule 20]	11.5568
CS(=O)(=O)c1cccc(C(=O)Nc2nnc(-c3ccno3)o2)c1 [KU0171319]	-3.363
CCOc1ccc(/C=C2\N=C(c3cc([N+](=O)[O-])cc([N+](=O)[O-])c3)OC2=O)cc1 [Molecule 97]	15.0386
O=C1N=C(Nc2cccc(Cl)c2Cl)S/C1=C\c1ccco1 [Molecule 3, O=C1N=C(S/C/1=C\c1ccco1)Nc1cccc(c1Cl)Cl]	14.8677
CCCCC(=O)N1CCc2c(nc3cc(-c4ccccc4Cl)[nH]n3c2=O)C1 [Molecule 37]	2.3506

###

- tested.system: bacteriophage T4 DNA polymerase (Enterobacteria phage T4)
- Construct: made in house
- Sequence (P04415 whole entry): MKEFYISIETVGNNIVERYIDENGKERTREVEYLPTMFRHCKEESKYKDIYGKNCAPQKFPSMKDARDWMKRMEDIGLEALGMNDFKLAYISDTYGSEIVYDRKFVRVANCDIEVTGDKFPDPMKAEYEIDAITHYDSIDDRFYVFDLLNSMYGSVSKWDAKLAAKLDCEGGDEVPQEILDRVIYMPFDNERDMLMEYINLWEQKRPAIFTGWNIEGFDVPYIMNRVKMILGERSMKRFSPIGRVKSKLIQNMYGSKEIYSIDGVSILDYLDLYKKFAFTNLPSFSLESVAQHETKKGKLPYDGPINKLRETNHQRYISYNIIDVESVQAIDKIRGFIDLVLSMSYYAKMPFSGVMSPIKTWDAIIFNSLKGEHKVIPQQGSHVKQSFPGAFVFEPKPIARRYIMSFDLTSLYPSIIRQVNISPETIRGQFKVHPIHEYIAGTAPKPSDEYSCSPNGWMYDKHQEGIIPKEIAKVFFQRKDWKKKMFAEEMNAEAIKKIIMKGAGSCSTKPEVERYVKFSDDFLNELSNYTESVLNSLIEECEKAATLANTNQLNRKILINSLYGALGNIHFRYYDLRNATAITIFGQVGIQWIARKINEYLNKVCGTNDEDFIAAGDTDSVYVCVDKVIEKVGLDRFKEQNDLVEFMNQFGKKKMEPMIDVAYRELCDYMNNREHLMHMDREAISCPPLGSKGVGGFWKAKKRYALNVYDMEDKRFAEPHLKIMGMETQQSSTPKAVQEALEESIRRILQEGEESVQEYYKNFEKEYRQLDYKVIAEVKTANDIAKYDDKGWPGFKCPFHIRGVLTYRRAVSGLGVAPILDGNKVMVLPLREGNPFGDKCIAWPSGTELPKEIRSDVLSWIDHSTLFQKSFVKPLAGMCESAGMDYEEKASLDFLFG
- assay.name: Counter-screen against bacteriophage T4 DNA polymerase
- Format: biochemical
- run.conditions: DRC-2; read at 10'; concentration 10
- Method: Codon-optimized, exonuclease-deficient Pf-apPOL was overexpressed in E. coli BL21 (DE3) and purified as described. The protein was dialysed against two, 1-liter changes of 20 mM Tris-HCl (pH 8.0), 400 mM NaCl, and 20% glycerol. […] Each compound was tested in a dose-response format to determine IC50 values. […] T4 DNA polymerase can be produced in large quantities, and is in the same family (B-family) as the replicative human DNA polymerases (α, δ, and ε)[20].
measurement.name: % inhibition T4 10' 10 (%)

compound	measurement.name	unit.annotation	reading
Cc1ccc(N2CCC(NC(=O)Cc3cccs3)C2=O)cc1C (stereo not shown)	% inhibition T4 10' 10	%	20
Cn1nc(-c2nnc(-c3ccccc3F)o2)c2c1CCN(C(=O)c1ccccc1Cl)C2	% inhibition T4 10' 10	%	-3
COc1ccccc1CC(=O)N1CCc2c(nc3cc(-c4ccccc4Cl)[nH]n3c2=O)C1	% inhibition T4 10' 10	%	-40
C#CC(C=CC)OC(=O)c1ccccc1C(=O)O (stereo not shown)	% inhibition T4 10' 10	%	4

Entry source: paper PMC9090415
